These entries and their values trace back to ChEMBL document CHEMBL5725801.

test: CaMKII Cell-Based Activity: CaMKII activity in neonatal rat ventricular myocytes (NRVM) was measured by monitoring the phosphorylation level of phospholamban using high-content imaging. NRVMs were plated in a clear bottom 384-well plate in medium supplemented with 10% fetal bovine serum (FBS) and incubated at 37° C., 5% CO2 overnight. The medium was changed to a serum-free medium and compounds were dosed to the cells. The cells were incubated at 37° C., 5% CO2 for 4 hours and were then treated with 100 nM ATX-II (Alomone Labs) to activate CaMKII. 10 minutes after the addition of ATX-II, the cells were fixed with 4% formaldehyde followed by permeabilization with 0.1% triton X100. The fixed cells were stained with an anti-phospho-phospholamban primary antibody (Santa Cruz Biotechnology) and an Alexa488-labeled anti-rabbit IgG secondary antibody (Life Technologies Corporation) as well as Hoechst 33342 (Life Technologies Corporation). The cells were imaged using an ArrayScan VTI (Cellomics) and analyzed for cells containing a positive fluorescent signal at 485 nm, reported as % responder. The % responders were plotted against the compound concentration to determine the compounds EC50.
Attribute measured: EC50 (nM)

Use the examples below as a reference point.
Compound	Measurement unit	Endpoint value
CCN(CC)[C@@H](C)CNC(=O)c1cc(-c2cnn3ccc(-c4cccs4)nc23)nc(N2CCNCC2)c1	nM	67
CCN(CC)[C@@H](C)CNC(=O)c1cc(-c2cnn3ccc(-c4cccs4)nc23)nc(N2CC[C@H]2C(=O)NCCOC)c1	nM	47.1
CCN(CC)[C@@H](C)CNC(=O)c1cc(NC(=O)C(C)C)nc(-c2cnn3ccc(-c4cccs4)nc23)c1	nM	20.5
CCN(CC)[C@@H](C)CNC(=O)c1cc(-c2cnn3ccc(-c4cccs4)nc23)nc(-c2cnn3ccc(-c4cccs4)nc23)c1	nM	794
CN(C)c1cc(C(=O)N2CC[C@H](N)C2)cc(-c2cnn3ccc(-c4ccccc4)nc23)n1	nM	841
CCN(CC)[C@@H](C)CNC(=O)c1cc(Cl)nc(-c2cnn3ccc(-c4cccs4)nc23)c1	nM	69.3
CCN[C@@H](C)CNC(=O)c1cc(-c2cnn3ccc(-c4cccs4)nc23)nc(N2CC(OC)C2)c1	nM	90.5
CCN(CC)[C@@H](C)CNC(=O)c1cc(NCCCOC)nc(-c2cnn3ccc(-c4cccs4)nc23)c1	nM	31.9
CCN(CC)[C@@H](C)CNC(=O)c1cc(-c2cnn3ccc(-c4cccs4)nc23)nc(N2CC[C@H]2C(=O)NCCF)c1	nM	53
CCOC1CN(c2cc(C(=O)NC[C@H](C)N(CC)CC)cc(-c3cnn4ccc(-c5cccs5)nc34)n2)C1	nM	9.45

P. CCC(N)CNC(=O)c1ccnc(-c2cnn3ccc(-c4ccccc4)nc23)c1 (stereo unspecified)
Q. CCN(CC)[C@@H](C)CNC(=O)c1cc(-c2cnn3ccc(-c4cccs4)nc23)nc(N2CC[C@H]2C(=O)N(C)O)c1
R. CC(CN)NC(=O)c1ccnc(-c2cnn3ccc(-c4ccccc4)nc23)c1 (stereo unspecified)
S. O=C(c1ccnc(-c2cnn3ccc(-c4ccccc4)nc23)c1)N1CCC2CNCC21 (stereo unspecified)
Output the entries ranked by EC50 from maximum down to minimum. Quick reminder: the answer is the labels in the order asked.
R, P, S, Q

P. CCN(CC)[C@@H](C)CNC(=O)c1cc(-c2cnn3ccc(-c4cccs4)nc23)nc(N2CC[C@H](N)C2)c1
Q. CN(C)CCNC(=O)c1ccnc(-c2cnn3ccc(-c4ccccc4)nc23)c1
R. CCN(CC)[C@@H](C)CNC(=O)c1cc(-c2cnn3ccc(-c4cccs4)nc23)nc(N2CCC2)c1
Ascending by EC50, please: list the compounds accordingly. Quick reminder: the answer is the labels in the order asked.
R, P, Q
(R: 40.2 nM, P: 68.7 nM, Q: 320 nM)

I. O=C(c1ccnc(-c2cnn3ccc(-c4ccccc4)nc23)c1)N1CCC2CCNCC21 (stereo unspecified)
II. CCN(CC)[C@@H](C)CNC(=O)c1cc(-c2cnn3ccc(-c4ccccc4)nc23)nc(N2CC[C@H]2C(=O)NC)c1
Hi there, can you help? I need to know whether I or II has lower measured EC50. State your choice using its label.
I

P. C[C@H](N)[C@@H]1CCCCN1C(=O)c1ccnc(-c2cnn3ccc(-c4ccccc4)nc23)c1
Q. CCN(CC)[C@@H](C)CNC(=O)c1cc(-c2cnn3ccc(-c4cccs4)nc23)nc(N2CC(NS(=O)(=O)CC)C2)c1
Hi there, can you help? I need to know whether P or Q has lower measured EC50. State your choice using its label.
Q
